This collection of values is drawn from PubChem BioAssay (NCI).

- System: HOP-62 NSCLC
- assayName: NCI tumour cell line growth inhibition, 48 h
A collection of molecules and their measured TGI
Give just the number in µM; leave the unit off.

The molecule CCCCC(O)(c1ccc(Cl)cc1)C(CN1CCOCC1)c1ccc(Cl)cc1 (centres undefined) showed TGI equal to 34.5

Continuing:
Briefly, TGI measured for `O=Cc1ccc2c(c1)CC1(Cc3ccccc3C1)C2` : 34.2

* * *

# Lookup of reported GI50 keyed by entry
- Test system: 786-0 renal
- assayName: NCI tumour cell line growth inhibition, 48 h

Worked examples follow.
Entry `Cc1cc(C(=O)Nc2ncc(Cc3cccc(C(F)(F)F)c3)s2)c2ccccc2n1` ; GI50 = 2.84 µM

Value of measured GI50 for the entry `NS(=O)(=O)c1ccc(N=Nc2c(O)[nH]c3ccc(-c4cnco4)cc23)cc1` : > 25 µM

# context switch: different compound, same GI50
For record c1cc(CNC23CC4CC(CC(C4)C2)C3)cc(C[N+](Cc2cccc(CNC34CC5CC(CC(C5)C3)C4)c2)(Cc2cccc(CNC34CC5CC(CC(C5)C3)C4)c2)Cc2cccc(CNC34CC5CC(CC(C5)C3)C4)c2)c1 (stereo not drawn) the listed GI50 is 3.55 µM

* * *

We begin with a simple list: items and their reported TGI.
- System: COLO 205 colon
- assayName: NCI tumour cell line growth inhibition, 48 h

COc1cc(/C=C2\C(=O)N(c3ccccc3)C(c3ccccc3)S2(=O)=O)cc(OC)c1OC (stereo not given) has a reported TGI of > 100 µM

The measured TGI associated with `CC1(C)C(=O)N(CCCCCCN2C(=O)C(C)(C)c3ccccc32)c2ccccc21` reads 55.2 µM

The value of TGI measured for the compound `COC(=O)C1=C(C)N(NC(=O)OC(C)(C)C)C(=O)C1=P(c1ccccc1)(c1ccccc1)c1ccccc1` turned out to be > 100 µM

Entry COc1cc(C2C(Cl)C(=O)N2NC(=O)c2ccc(NC(C)=O)cc2)cc(OC)c1OC (stereo not given) , TGI reported as > 100 µM

# TGI (compound: `Oc1ccc(-c2nc(-c3cccnc3)c(-c3ccc(Cl)cc3)[nH]2)cc1` ) is 23.9 µM

Entry O=C1C2C3C=C4c5ccccc5N(c5ccccc5)C4(C2C(=O)N1Cc1ccccc1)C1C(=O)N(Cc2ccccc2)C(=O)C31 (stereo not given) , TGI reported as > 100 µM

Recorded result, `CC12C(=O)CC(CC1=O)C2(C)C` , TGI: > 100 µM

Data point: COc1ccc(C2OC[C@H]3O[C@@H](OCc4ccccc4)[C@H](O)[C@@H](O)[C@@H]3O2)cc1 (stereo not given in full) ; TGI = > 100 µM

TGI in this record for `COC(=O)C1=CNC=C(C(=O)OC)C1C1=CC(=O)C(C)=CC1=O` : 55.1 µM

Entry CC(C)(C)OC(=O)NC(Cc1ccc(OCc2ccccc2)cn1)C(=O)N1CCCCC1 (stereo not given) , TGI reported as 33.3 µM

Continuing:
Reported TGI of `Cc1ccn2c(c1)nc1nc3ccccc3nc12` : > 100 µM

Please fill in: TGI reported for CC(C)C(Nc1c2ccccc2nc2ccccc12)C(=O)O (stereo not given) = > 100 µM

Item: `CCOC(=O)CNc1c(OCc2ccccc2)c(=O)c1=O` | TGI: > 100 µM

Entry `Oc1c(CN2CCOCC2)ccc2cccnc12` ; TGI = > 10 µM

For reference, reported TGI for `C[C@]12CCC(=O)O[C@H]1CCCCO2` stands at > 100 µM
